molecular target: S. aureus SrtA (Staphylococcus aureus); construct: His tag (inferred from IMAC on a HisTrap column); made in house; host or cells: E. coli BL21 Gold (DE3); assay: fluorometric enzyme assay of SrtA transpeptidation (Abz-LPETG-Dap(Dnp)-OH substrate); format: biochemical; settings: maximum inactivation rate; Tris pH 7.50; n. i. = <20% inhibition at 100 µM
recorded-endpoint: k inact

Field: example entries. Status: answers known.
[
  {
    "smiles-repr": "CS(=O)(=O)c1ncc(Cl)c(C(=O)Nc2cccc(Sc3ccccc3)c2)n1",
    "k inact": "0.00578 ± 0.00033 s⁻¹"
  },
  {
    "smiles-repr": "CS(=O)(=O)c1ncc(Cl)c(C(=O)Nc2ccc3[nH]ncc3c2)n1",
    "k inact": "n. i."
  },
  {
    "smiles-repr": "CS(=O)(=O)c1ncc(Cl)c(C(=O)Nc2ccc(Oc3ccccc3)cc2)n1",
    "k inact": "n. i."
  },
  {
    "smiles-repr": "CS(=O)(=O)c1ncc(Cl)c(C(=O)Nc2cccc(C(=O)Nc3ccccc3)c2)n1",
    "k inact": "n. i."
  }
]

Next up:
Item "CS(=O)(=O)c1ncc(Cl)c(C(=O)NCCSc2ccccc2)n1" has what recorded k inact?
n. i.

====

molecular target: S. aureus SrtA (Staphylococcus aureus, UniProt Q2FV99); construct: His tag (inferred from IMAC on a HisTrap column); made in house; host or cells: E. coli BL21 Gold (DE3); assay: fluorometric enzyme assay of SrtA transpeptidation (Abz-LPETG-Dap(Dnp)-OH substrate); format: biochemical; details: second-order rate of inhibition; Tris pH 7.50; n. i. = <20% inhibition at 100 µM
Sequence (Q2FV99 60-206): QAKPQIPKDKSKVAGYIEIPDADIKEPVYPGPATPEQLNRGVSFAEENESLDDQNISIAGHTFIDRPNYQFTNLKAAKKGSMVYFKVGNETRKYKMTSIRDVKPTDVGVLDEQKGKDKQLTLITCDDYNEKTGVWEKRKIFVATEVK
recorded-endpoint: k 2nd

[
  {
    "smiles-repr": "Cc1ccc(-c2csc(NC(=O)c3nc(S(C)(=O)=O)ncc3Cl)n2)cc1",
    "k 2nd": "n. i."
  },
  {
    "smiles-repr": "CCC(CC)NC(=O)c1nc(S(C)(=O)=O)ncc1Cl",
    "k 2nd": "n. i."
  },
  {
    "smiles-repr": "CS(=O)(=O)c1ncc(Cl)c(C(=O)Nc2cccc(Sc3ccccc3)c2)n1",
    "k 2nd": "7,305 ± 294 M^−1min^−1"
  },
  {
    "smiles-repr": "CS(=O)(=O)c1ncc(Cl)c(C(=O)Nc2cccc(C(=O)c3ccccc3)c2)n1",
    "k 2nd": "20,785 ± 4,074 M^−1min^−1"
  }
]

Can you share its k 2nd? I mean this compound: "CS(=O)(=O)c1ncc(Cl)c(C(=O)Nc2cccc(C(=O)Nc3ccccc3)c2)n1"
n. i.
